Target: human dopamine D3 receptor (Homo sapiens, UniProt P35462)
Construct: expressed in transfected cells; membranes
Sequence (P35462 whole entry): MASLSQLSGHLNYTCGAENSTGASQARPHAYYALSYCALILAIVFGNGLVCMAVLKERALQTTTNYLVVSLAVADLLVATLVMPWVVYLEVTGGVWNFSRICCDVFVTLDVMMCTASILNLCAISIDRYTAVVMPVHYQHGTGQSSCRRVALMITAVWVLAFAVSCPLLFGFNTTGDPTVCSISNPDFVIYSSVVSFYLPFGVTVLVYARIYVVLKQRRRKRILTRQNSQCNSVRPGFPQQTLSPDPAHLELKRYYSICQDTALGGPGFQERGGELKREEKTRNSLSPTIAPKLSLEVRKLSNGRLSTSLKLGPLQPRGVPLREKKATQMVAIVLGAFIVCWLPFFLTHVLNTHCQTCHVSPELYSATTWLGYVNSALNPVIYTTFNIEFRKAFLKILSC
Assay: binding to human D3 receptors expressed in CHO cells ([125I]-iodosulpride)
measured property: Ki
Kindly format the answer as number then unit.

Inquiry: Which Ki is reported for this compound? CCCN[C@@H]1CCc2c(OC)cccc2[C@@H]1C
Reply text: 69.2 nM
